- Test system: Rat basophilic leukemia (RBL-2H3) cells
- PROTOCOL: Mast cell degranulation assay (β-hexosaminidase release)
- Format: cell-based
- RUN PARAMETERS: Rattus norvegicus, RBL-2H3; 25 μM; read-out: maximum inhibition (concentration used)
Each entry below carries its reported inhibition at 25 µM.
PROPERTY MEASURED: inhibition at 25 µM (%)

CCCCCCCCCCCCCCCCSCC(COC)COP(=O)([O-])OCC[N+](C)(C)C (centres unmarked) [Compound 4, reference compound] = 84
CCCCCCCCCCCCCCCCOC[C@H](COP(=O)([O-])OCC[N+](C)(C)C)SC(C)=O [Compound 12, 2-thio PAF C-16] = 41
CCCCCCCCCCCCCCCCOC[C@H](COP(=O)([O-])OCC[N+](C)(C)C)OC(=O)CC [Compound 28] = 64
CCCCCCCCCCCCCCCCCCOCC(COP(=O)([O-])OCC[N+](C)(C)C)OC (centres unmarked) [Compound 5, edelfosine, reference compound] = 79
CCCCCCCCCCCCOP(=O)([O-])OCC[N+](C)(C)C [Compound 17, Dodecylphosphocholine] = 76

* * *

Each entry below carries its reported pIC50.
- System: Rat basophilic leukemia (RBL-2H3) cells
- PROTOCOL: Mast cell degranulation assay (β-hexosaminidase release)
- Assay type: cell-based
- RUN PARAMETERS: Rattus norvegicus, 1 h; concentration at which 50% of maximal inhibition is reached; RBL-2H3, 60 min incubation with compound, DNP antigen challenge; read-out: ID50 (the source's name)
pIC50: −log10 of the molar value.
PROPERTY MEASURED: pIC50

CCCCCCCCCCCCCCCCOC[C@H](COP(=O)([O-])OCC[N+](C)(C)C)OC = 5.54
CCCCCCCCCCCCCCCCOCCCOP(=O)([O-])OCC[N+](C)(C)C = 5.51
CCCCCCCCCCCCCCCCOC[C@H](COP(=O)([O-])OCC[N+]1(C)CCCC1)OC(C)=O = 4.86
CCCCCCCCCCCCCCCCOC[C@H](COP(=O)([O-])OCC[N+](C)(C)C)OC(=O)CC = 4.88
CCCCCCCCCCCCCCCCSCC(COC)COP(=O)([O-])OCC[N+](C)(C)C (centres unmarked) [Compound 4, reference compound] = 5.32
CCCCCCCCCCCCCCCCCCOCC(C)(C)COP(=O)([O-])OCC[N+](C)(C)C = 5.10
CCCCCCCCCCCCCCCCOC[C@H](COP(=O)([O-])OCC[N+](C)(C)C)OCC = 5.52
CCCCCCCCCCCCCCCCCCOP(=O)([O-])OCC[N+](C)(C)C = 5.59

* * *

Each entry below carries its reported IC50.
- Test system: Rat basophilic leukemia (RBL-2H3) cells
- PROTOCOL: Mast cell degranulation assay (β-hexosaminidase release)
- Type: cell-based
- RUN PARAMETERS: Rattus norvegicus, 1 h; concentration at which 50% of maximal inhibition is reached; RBL-2H3, 60 min incubation with compound, DNP antigen challenge; read-out: ID50 (the source's name)
PROPERTY MEASURED: IC50

CCCCCCCC/C=C/CCCCCCCCOP(=O)([O-])OCC[N+](C)(C)C [Compound 24, 1-elaidylphosphocholine (C18:1, trans)] = 2.9 µM
CCCCCCCCCCCCCCCCCCOCC(COP(=O)([O-])OCC[N+](C)(C)C)OC (stereo not drawn) [Compound 5, edelfosine, reference compound] = 6.2 µM
CCCCCCCCCCCCCCCCOP(=O)([O-])OCC[N+](C)(C)C [Compound 3, 1-hexadecylphosphoryl-choline] = 4.6 µM
